Source of measurements: paper PMC9820303

Biological target: UniProt:O55242
Assay: In vitro σ1R-σ2R association of recombinant proteins (HaloLink-σ2R, Western blot)
Assay type: biochemical, murine
Parameters: The coding region of the full-length murine σ1R (AF004927); GST (N, cleaved yes); made in house; host or cells: E. coli BL21 (KRX)
Conditions: increasing concentrations; 30 min RT; vs control without ligand
Experimental: Figure 7 Effect of β-End 1–31, ^αN-acetyl β-End 1–31 and their N-terminal derivatives on σ1R-σ2R, σ1R-NR1 C1 and σ1R-BiP associations. Amino acid sequence of β-End 1–31 showing derivatives 1–26 and 1–27. […] At the end of the incubation, protein complexes bound to HaloLink-σ2R were obtained by centrifugation, washed three times, solubilized in 2× Laemmli buffer containing β-mercaptoethanol, resolved by SDS-PAGE, and analyzed by Western blotting (for more details, see Section 4). […]
Experimental Endpoint: effect on σ1R-σ2R association

> print(dat)
                                   compound  system.under.test   measured.result
1      Cc1cc(OCCN2CCOCC2)nn1-c1ccc2ccccc2c1     UniProt:O55242  did the opposite
2  CC(=O)[C@H]1CC[C@H]2[C@@H]3CCC4=CC(=O)CC[C@]4(C)[C@H]3CC[C@]12C [progesterone, Progesterone, reference compound]     UniProt:O55242  did the opposite
3  Br.Br.CN(C)CCN(C)CCc1ccc(Cl)c(Cl)c1 [BD1047, reference compound]     UniProt:O55242  did the opposite

====

Biological target: σ1R-NR1 C1 (Mus musculus)
Construct: The coding region of the full-length murine σ1R (AF004927); GST (N, cleaved yes); made in house; host or cells: E. coli BL21 (KRX)
Sequence (O55242 whole entry): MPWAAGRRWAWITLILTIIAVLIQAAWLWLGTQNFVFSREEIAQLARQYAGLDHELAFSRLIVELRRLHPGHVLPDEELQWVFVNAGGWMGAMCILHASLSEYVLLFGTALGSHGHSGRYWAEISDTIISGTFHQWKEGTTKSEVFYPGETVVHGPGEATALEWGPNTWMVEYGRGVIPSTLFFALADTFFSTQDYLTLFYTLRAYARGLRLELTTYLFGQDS
Assay: In vitro σ1R-NR1 C1 association of recombinant proteins (Western blot)
Assay type: biochemical, murine
Conditions: increasing concentrations; 30 min RT; vs control without ligand
Experimental Endpoint: effect on σ1R-NR1 C1 association

> print(dat)
                                   molecule   measured.result
1  CC(=O)[C@H]1CC[C@H]2[C@@H]3CCC4=CC(=O)CC[C@]4(C)[C@H]3CC[C@]12C [progesterone, Progesterone, reference compound]  did the opposite
2      Cc1cc(OCCN2CCOCC2)nn1-c1ccc2ccccc2c1  did the opposite
3  Br.Br.CN(C)CCN(C)CCc1ccc(Cl)c(Cl)c1 [BD1047, reference compound]  did the opposite

====

Target: σ1R-BiP (Mus musculus)
Construct: The coding region of the full-length murine σ1R (AF004927); GST (N, cleaved yes); host or cells: E. coli BL21 (KRX) for σ1R
Sequence (O55242 whole entry): as above
Assay: In vitro σ1R-BiP association of recombinant proteins (Western blot)
Assay type: biochemical
Details: increasing concentrations; 30 min RT; vs control without ligand
Experimental Endpoint: effect on σ1R-BiP association

> print(dat)
                                   compound   measured.result
1  Br.Br.CN(C)CCN(C)CCc1ccc(Cl)c(Cl)c1 [BD1047, reference compound]  did the opposite
2  Cc1cc(OCCN2CCOCC2)nn1-c1ccc2ccccc2c1 [S1RA]  did the opposite
3  CC(=O)[C@H]1CC[C@H]2[C@@H]3CCC4=CC(=O)CC[C@]4(C)[C@H]3CC[C@]12C [progesterone, Progesterone, reference compound]  did the opposite
